B1: CPEB3 Ribozyme (parent)
chain: UAACAGGGGGCCACAGCAGAAGCGUUCACGUCGCAGCCCCUGUCAGAUUCUGGUGAAUCUGCGAAUUCUGCUGUAUAUCUC

variants of: B1; experiment: self-cleavage, relative activity (ratio to wild type); higher = more cleavage; in vitro, sequencing
Reported self-cleavage values for a set of variants

mutation.code | self-cleavage
C12A C62A | 0.71
C11U U43C | 0.35
A3U G61C | 0.5
U25C A57G | 0.28
A5U G6A | 0.52
U66G U72C | 0.61
A64G U78G | 1.11
A20G C23U | 0.38
A18C U25C | 0.27
U51C U66C | 0.49
U51C G61C | 0.25
U74C A75G | 1.25
U72C U80G | 1.23
G7A C14A | 0.31
G19C A57U | 0.13
C23A A56G | 0.2
A28U A75G | 0.71
A3G U58G | 0.39
C14U U78C | 1.22
A57U U69G | 0.44
U60G U67A | 0.26
C12U A28C | 0.94
G22A | 0.29
U43C U67A | 0.36
G36U U80C | 0.46
A15G C27U | 0.27
A13U C44U | 0.23
U25G U78A | 0.12
U25A A65G | 0.28
C40U U66A | 0.23
A28G U80C | 0.81
A2G A57G | 0.5
A47G U66C | 0.35
G46U U67A | 0.23
A56G G73C | 1.26
U26G U74A | 0.41
G16A U26C | 0.13
A15G A21C | 0.35
C29U C81A | 0.71
U31G A57G | 0.48
